# SYSTEM: T1, recombinant biotinylated CD71 extracellular domain (Sino Biologics) with an N-terminal 6His tag (human, UniProt P02786 89-760, biotinylated (sites not given))
# T1 construct: extracellular domain; also called hCD71; huCD71
# T1 sequence (P02786 other isoform, or with tags, fused parts or gaps): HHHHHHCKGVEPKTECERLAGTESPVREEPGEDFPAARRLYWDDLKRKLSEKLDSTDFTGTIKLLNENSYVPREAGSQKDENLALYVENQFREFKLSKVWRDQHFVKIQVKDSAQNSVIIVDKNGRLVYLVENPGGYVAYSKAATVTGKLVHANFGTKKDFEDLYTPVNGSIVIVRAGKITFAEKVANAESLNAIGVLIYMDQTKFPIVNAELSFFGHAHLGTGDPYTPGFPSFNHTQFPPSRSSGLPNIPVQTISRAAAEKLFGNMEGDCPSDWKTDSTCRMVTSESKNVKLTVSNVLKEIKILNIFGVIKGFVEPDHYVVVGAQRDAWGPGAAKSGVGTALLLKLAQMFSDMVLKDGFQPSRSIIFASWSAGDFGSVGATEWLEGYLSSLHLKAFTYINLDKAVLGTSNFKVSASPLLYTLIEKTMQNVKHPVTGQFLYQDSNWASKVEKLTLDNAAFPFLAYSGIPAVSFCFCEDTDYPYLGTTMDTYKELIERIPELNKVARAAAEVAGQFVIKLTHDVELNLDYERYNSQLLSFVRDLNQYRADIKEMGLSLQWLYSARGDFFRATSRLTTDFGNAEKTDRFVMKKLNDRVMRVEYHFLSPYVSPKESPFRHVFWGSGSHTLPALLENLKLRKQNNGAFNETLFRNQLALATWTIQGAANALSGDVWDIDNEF
# TEST_NAME: screening ELISA, ratio
ENDPOINT: hCD71:HSA

P = SEQ ID NO 141 (designed binder, FN3 domain) MLPAPKNLVVSRVTEDSARLSWTAPDAAFDSFVIEYFEQFNLGEAIVLTVPGSERSYDLTGLKPGTEYLVGIYGVKGGWLSHPLSAIFTT
Q = SEQ ID NO 151 (designed binder, FN3 domain) MLPAPKNLVVSRVTEDSARLSWTAPDAAFDSFFIPYAEPSPTGEAIVLTVPGSERSYDLTGLKPGTEYGVVILGVKGGYGSDPLSAIFTT
Prompt line: Returns: the argument ( P or Q ) having the larger hCD71:HSA. // output: label of the selected item
Response line: P
(P: 648, Q: 32)
